FYI, the data here is from the supplement of paper PMC13380429.

# Test system: Vero E6 infected with SARS-CoV-2
# ASSAY_EXPLANATION: SARS-CoV-2 infection rate relative to infected DMSO; higher = more infection, active = 60 or less
# SETTINGS: 24 h
ATTRIBUTE_MEASURED: SARS-CoV-2 infection rate (%)

| MOLECULE | ATTRIBUTE_MEASURED | NUMBER |
| --- | --- | --- |
| COc1ccccc1N1CCN(CCCCNC(=O)c2ccc3ccccc3c2)CC1 (10 µM) | SARS-CoV-2 infection rate | 94.5 |
| CCCCCCOc1nsnc1C1=CCCN(C)C1 [xanomeline] (10 µM) | SARS-CoV-2 infection rate | 71.5 |
| CC[C@H](C)[C@H](N)C1=N[C@H](C(=O)N[C@@H](CC(C)C)C(=O)N[C@H](CCC(=O)[O-])C(=O)N[C@H](C(=O)N[C@H]2CCCCNC(=O)[C@H](CC(N)=O)NC(=O)[C@@H](CC(=O)[O-])NC(=O)[C@H](Cc3cnc[nH]3)NC(=O)[C@@H](Cc3ccccc3)NC(=O)[C@H]([C@@H](C)CC)NC(=O)[C@@H](CCCN)NC2=O)[C@@H](C)CC)CS1.[Zn+2] [bacitracin-zinc] (10 µM) | SARS-CoV-2 infection rate | 108 |
| CN(C)CCOC(C)(c1ccccc1)c1ccccn1 (stereo unspecified) [doxylamine] (10 µM) | SARS-CoV-2 infection rate | 96 |
| N[C@@H]1[C@H]2CN(c3nc4c(cc3F)c(=O)c(C(=O)O)cn4-c3ccc(F)cc3F)C[C@@H]12 [trovafloxacin] (10 µM) | SARS-CoV-2 infection rate | 108 |
| C#C[C@]1(OC(C)=O)CC[C@H]2[C@@H]3CCC4=CC(=O)CC[C@@H]4[C@H]3CC[C@@]21C [norethindrone-acetate] (10 µM) | SARS-CoV-2 infection rate | 106 |
